From: ChEMBL document CHEMBL1126117

system: GC3/Cl; assay: Concentration required to produce 50% reduction in clonogenic survival of GC3/Cl cell line.; type: functional, cell-based; conditions: Homo sapiens
Entries whose IC50 is below 20 µM take class 1; entries at or above 20 µM take class 0.

Req: IC50 under 20 µM? Item: ClCCCN1c2ccccc2Oc2ccccc21
Resp: class 0

Req: IC50 under 20 µM? Item: c1ccc2c(c1)Oc1ccccc1N2CCCCN1CCOCC1
Resp: class 1

Req: IC50 under 20 µM? Item: OCCN(CCO)CCCCN1c2ccccc2Oc2ccccc21
Resp: class 1

Req: IC50 under 20 µM? Item: c1ccc2c(c1)Oc1ccccc1N2CCCN1CCOCC1
Resp: class 0

###

test system: GC3/Cl; assay: Inhibitory concentration was evaluated by measuring the potentiation of VCR cytotoxicity in GC3/Cl cell line.; type: functional, cell-based; conditions: Homo sapiens
# pIC50 listing for each entry below
By convention, pIC50 is the negative base-10 log of a molar concentration.

c1ccc2c(c1)Oc1ccccc1N2CCCN1CCOCC1    8.68
c1ccc2c(c1)Oc1ccccc1N2CCCCN1CCOCC1    8.62
OCCN(CCO)CCCN1c2ccccc2Oc2ccccc21    8.32
O=C(CN1CCCCC1)N1c2ccccc2Oc2ccccc21    8.54

Turning now to a further record.
Req: Given the compound ClCCCN1c2ccccc2Oc2ccccc21 , what is its reported pIC50?
Resp: 8.70

###

system: GC3/Cl; test: Concentration required to produce 10% reduction in clonogenic survival of GC3/Cl cell line.; assay type: functional, cell-based; conditions: Homo sapiens
PROPERTY_LABEL: IC10 (µM)
Hi! Could you send only the number? It should be in µM, unit omitted.

Req: Given the compound O=C(CN1CCCCC1)N1c2ccccc2Oc2ccccc21 , what is its reported IC10?
Resp: 40

Req: Given the compound c1ccc2c(c1)Oc1ccccc1N2CCCCN1CCOCC1 , what is its reported IC10?
Resp: 10

Req: Given the compound OCCN(CCO)CCCN1c2ccccc2Oc2ccccc21 , what is its reported IC10?
Resp: 25

Req: Given the compound c1ccc2c(c1)Oc1ccccc1N2CCCN1CCOCC1 , what is its reported IC10?
Resp: 25

Req: Given the compound ClCCCN1c2ccccc2Oc2ccccc21 , what is its reported IC10?
Resp: 50

###

tested on: KB; experiment: Concentration required to produce 50% reduction in clonogenic survival of KB8-5 cell line.; type: functional, cell-based; details: Homo sapiens
# IC50 listing for each entry below
Hi! Could you send only the number? It should be in µM, unit omitted.

Below, 3 molecules whose answers are already recorded.
OCCN(CCO)CCCN1c2ccccc2Oc2ccccc21    38
O=C(CN1CCCCC1)N1c2ccccc2Oc2ccccc21    73
c1ccc2c(c1)Oc1ccccc1N2CCCN1CCOCC1    73

Req: Given the molecule CCN(CC)CCCN1c2ccccc2Oc2ccccc21 , what is its reported IC50?
Resp: 15

Req: Given the molecule ClCCCN1c2ccccc2Oc2ccccc21 , what is its reported IC50?
Resp: 57

Req: Given the molecule c1ccc2c(c1)Oc1ccccc1N2CCCCN1CCOCC1 , what is its reported IC50?
Resp: 18

###

system: GC3/Cl; assay: Inhibitory concentration was evaluated by measuring the potentiation of VLB cytotoxicity in GC3/Cl cell line.; type: functional, cell-based; settings: Homo sapiens
# pIC50 listing for each entry below
By convention, pIC50 is the negative base-10 log of a molar concentration.

Below, 4 compounds whose answers are already recorded.
O=C(CN1CCCCC1)N1c2ccccc2Oc2ccccc21    8.66
c1ccc2c(c1)Oc1ccccc1N2CCCCN1CCOCC1    8.70
OCCN(CCO)CCCN1c2ccccc2Oc2ccccc21    8.70
c1ccc2c(c1)Oc1ccccc1N2CCCN1CCOCC1    8.70

Turning now to a further record.
Req: Given the compound ClCCCN1c2ccccc2Oc2ccccc21 , what is its reported pIC50?
Resp: 8.77
